I'd appreciate it if you could supply fold over background (A450) values for the items below.
Biological target: mouse TREM2 truncated stalk peptide (aa 149-163) (mouse) (UniProt Q99NH8)
Experiment: ELISA on biotinylated peptide captured by streptavidin; A450 normalised to isotype control
Respond numerically; units are fold and should not be typed.

Record request: fold over background (A450) value, item CL0020120 (antibody, V domains shown) VH: EVQLQQSGPELVRTGASVKISCRASSYSFTDNYIHWVKQTHGRSLEWIGYISGYTGATSYNQKFKGKATFTVDTSSSTAYMQFNSLTSEDSAVYYCARSTMIAPYGMDYWGQGTSVTVSS VL: DIVMTQSHKFMSTSVGDRVNITCKASQDVVTAVAWYQQKPGQSPKLLIYWASTRHTGVPDRFTGSGSGTDFTLTISNVQSEDLADYFCQQYSRYPLTFGAGTKLELK
1.2

// query fold over background (A450) value for entry CL0020111 (antibody, V domains shown) VH: QVQLQQPGADLVKPGASVKMSCKASGYTFTNYWITWVQQRPGQGLEWIGDIYPGSGNTNYNEKFRSKATLTVDTSSNTAYMQLSSLTSEDSAVYYCSREGYGISAWGQGTTLTVSS VL: QIVLTQSPAFMSASPGEKVTITCRASSSVSYMHWFQQKPGTSPKLWIFSTSNLASGVPARFSGSGSGTSHSLTISRMEAEDAATYYCQQRSGYPLTFGAGTKLELK
1.5
